# ASSAY EXPLANATION: NCI Yeast Anticancer Drug Screen. Data for the mec2-1 strain (AID 157)
# CONDITION PARAMETERS: S. cerevisiae mec2-1 strain, at 50.0 µM
About 79,000 compounds went through this panel and 15% of them were active in at least one assay; those are over-represented in the sample as a whole. Calls of active or inactive are those of the source. Cut-off read from the data, not from the text of the source: active = growth inhibition above about 70%; inactive = the rest.
Valid outcomes are listed here; reply with one: true (active), false (inactive)

Which outcome was entered for the compound `Cc1ccc(NC(=O)OCCOc2c(C(C)C)cccc2C(C)C)c([N+](=O)[O-])c1` in this test? false

Please let me know the test result on file for `CCC(=O)Nc1nn[nH]n1` . false

Call for entry `CC[O-].CC[O-].O=C1c2ccccc2C(=O)c2c(O)ccc([O-])c21.O=C1c2ccccc2C(=O)c2c(O)ccc([O-])c21.[Ti+4]` : false

What call does the record list for `CC(=O)Oc1ccc2c(c1)Cc1cc([N+](=O)[O-])ccc1-2` ? false

Assay result, entry `CC(C)Nc1ccc(O)cc1` — outcome? false

Hi, do you know how `CN(C)CCCN` came out in this test? false

Tell me the recorded outcome of this test for `O=C(Nc1ccc(F)c([N+](=O)[O-])c1)N(Cc1ccccc1)c1ccccc1` . false

What outcome does the record of this test show for `CC(C)NS(=O)(=O)c1ccccc1` ? false

Query: recorded result category for `CCN(CC)CCCCNc1ccnc(N)n1` in this test false

Kindly provide the recorded test outcome for the following compound: `O=C(O)c1ccccc1N=N/C(=N\Nc1ccccc1C(=O)O)c1ccnc2ccccc12` false

Answer briefly: the call reported for CC1CCC2(C)OC1OC2CN (stereo unspecified) in this assay. false

What classification did CC(=O)C1OC1c1ccccn1 (stereo unspecified) end up with in this test? false

Check the results log: what was the call for `CC(=O)Oc1ccc2c(c1)oc1c3ccc(OC(C)=O)cc3n(C)c(=O)c21` ? false

Can you look up the reported call for `CC/C=N/NC(=O)OCC` for me? false

Recorded test call requested for `CC(NC(=O)N(C)C)NC(=O)N(C)C` false

Tell me the assay call for `CCCCOCN(COCCCC)CC(C)(C)C` please. false

# fetch the recorded call for `CSc1nc(SC)c2nc(SC)n(-c3ccccc3)c2n1` here false

# outcome recorded in this test, key = CN1CC(O)c2cc(N=NC(N)=O)c(O)cc21 (stereo unspecified) false

Tell me the assay call for `N#CCc1cn(-c2ccccc2)nn1` please. false

In this assay, the call recorded for CCC(C)NS(=O)(=O)c1ccc(Cl)cc1 (stereo unspecified) was what? false

Could you check what this test reported for `OCCN(CCO)c1ccc(O)cc1` ? false

Each compound tested received a call. Report the one for COc1ccccc1NC(=O)C(=O)C1C(=O)Nc2ccccc2S1=O (stereo unspecified) . false

Just curious, what result did `CCOC(=O)c1cnc(NCCCCCCNc2ncc(C(=O)OCC)c(=O)[nH]2)[nH]c1=O` get here? false

Which outcome was assigned to `O=C(O)c1nc2nc(Cl)c(Cl)nc2[nH]1` in this test? false

For this compound, state the assay outcome: `O=C(O)CCBr` false

// return assay outcome for `c1cc2c3c(cc4c(c3c1)CCCC4)CC2` false

GET /call?item= `CCOC(=O)CCC(=O)C(=O)OCC` returns the recorded outcome of this test. false

For `O=C(COc1c(Cl)c(Cl)c(Cl)c(Cl)c1Cl)Nc1cccc(Cl)c1` , what call appears in the results of this test? false

Outcome? `CCCCCCc1cn([C@H]2C[C@H](O)[C@@H](CO)O2)c(=O)[nH]c1=O` false

Each compound tested received a call. Report the one for Cc1cn(C2CC(O)C(COC(=O)C(C)(C)C)O2)c(=O)[nH]c1=O (stereo unspecified) . false

Give the logged outcome of this assay for the following compound: `CCOC(=O)C(NC(=O)Cc1ccccc1)C(=O)OCC` false

Would you mind telling me which call this test gave `CC(=O)Nc1c(C)n(C)n(-c2ccccc2)c1=O` ? false

Given CCOC(=O)C1=C(C)N(NC(N)=O)C(C)(O)C12CCOC2=O (stereo unspecified) , state the outcome it received in this test. false

What call does the record list for `CCCCCOc1ccc2ccccc2c1` ? false

Any idea what this test logged for `O=C(CNC(=O)c1ccccc1)Nc1ccc([N+](=O)[O-])cc1` ? false

So what was the verdict on `CCN(CC)c1ccc(-c2ccccc2)cc1` in this test? false

For this compound, state the assay outcome: `O=C(NO)/C(CC(=O)c1ccc(O)cc1O)=N\O` false

Outcome? CC1=C(C#N)C(=N)OC1(C)C1CC(=O)C=CC1=O (stereo unspecified) false

So what was the verdict on `Brc1cccc2ccccc12` in this test? false

Test call, this compound: `O=c1nc(OCCO)c([N+](=O)[O-])c(C(Cl)(Cl)Cl)[nH]1` true

What did this assay record as the result for `CNNCCCC(=O)NC(C)C` ? false

What outcome does the record of this test show for CNc1nc2c(s1)c1c(O)c3c(O)c(C)c4c(c32)C(=O)C(C)(O/C=C/C(OC)C(C)C(OC(C)=O)C(C)C(O)C(C)C(O)C(C)/C=C/C=C(/C)C(=O)N1)O4 (stereo unspecified) ? false

What did the test return for `O=C1CN(/N=C/c2ccc(-c3ccc(F)cc3)o2)C(=O)N1` ? false

So what was the verdict on `COC(=O)NC(=O)CCC(=O)O` in this test? false

For NC(CCC(=O)O)C(=O)NC(Cc1c[nH]c2ccccc12)C(=O)O (stereo unspecified) , which call appears in the assay record? false

Recorded test outcome, item `Cc1ccc(S(=O)(=O)NN=C2C(C)(C)C(=O)C2(C)C)cc1` false

Name the outcome recorded for CC(NC(=O)CNC(=O)CN)C(N)=O (stereo unspecified) in the assay. false

Test call, this compound: CCCCC(C(C)=O)C(=O)CC (stereo unspecified) false

Test call, this compound: C=CS(=O)CCCCCCC (stereo unspecified) false

Call for entry O=C(/C=C/c1ccc(O)cc1)OCC1OC(Oc2cc(O)c3c(c2)OC(c2ccc(O)cc2)CC3=O)C(O)C(O)C1O (stereo unspecified) : false

Please indicate how the test categorized OCC(O)C(O)C(O)C(O)C(O)C(O)CO (stereo unspecified) . false
